Kindly state cell viability for each of the entries shown.
test system: P12-Ichikawa; assay: cell viability relative to DMSO control; higher = less cytotoxic; details: RPMI 5 mM glucose + 10% dialyzed FBS; 48 h; 0.00702 µM
Returns: string containing the number followed by the unit.

Before answering, review these 2 worked examples.
INSERT INTO results (molecule, observed_value) VALUES
  ('CC1(C)CC(=O)c2c(C(F)(F)F)nn(-c3ccc(C(N)=O)c(NC4CCC(OC(=O)CN)CC4)c3)c2C1 (stereo not drawn)', '93%'),
  ('c1ccc(-c2nn3c(c2-c2ccnc4cc(OCCN5CCOCC5)ccc24)CCC3)nc1', '122%');

Determine from records and report cell viability for "COc1cc(N2CCC(N3CCN(C)CC3)CC2)ccc1Nc1ncnc(Nc2ccccc2[S+](=O)([O-])C(C)C)n1"
118%
